All values here come from ChEMBL document CHEMBL3399921.

# TEST SUMMARY: Selectivity ratio of IC50 for neonatal HDF cells to MIC for Mycobacterium tuberculosis H37Rv
# Type: ADME, cell-based
# MEASUREMENT CONDITIONS: human
REPORTED ENDPOINT: selectivity ratio

Recorded selectivity ratio (molecule Nc1c(NC(=O)CCc2cc(Cl)cc(Cl)c2)cc(Cl)cc1[N+](=O)[O-] ): 10

* * *

# Tested on: Mycobacterium tuberculosis
# TEST SUMMARY: Tuberculostatic activity against Mycobacterium tuberculosis Spec. 192 by two-fold classical test-tube method
# Format: functional
REPORTED ENDPOINT: MIC (µM)
Field format: number, assumed µM, no unit text.

Reported MIC for Cc1cc2nc(/C=C/c3ccccc3)n(S(C)(=O)=O)c2cc1C was 310

For this molecule ( Cc1cc2nc(CCc3cc(Cl)cc(Cl)c3)n(S(=O)(=O)c3ccccc3)c2cc1C ), measured MIC is 55

Form field MIC, entry Nc1c(NC(=O)/C=C/c2ccccc2)cc(Cl)cc1[N+](=O)[O-] : 320

Record c1ccc(CCc2nc3cc4ccccc4cc3[nH]2)cc1 . Reported MIC: 370

Notebook: Cc1cc2nc(CCc3cc(Cl)cc(Cl)c3)n(S(C)(=O)=O)c2cc1C , MIC read as 63

The molecule identified as CS(=O)(=O)n1c(/C=C/c2cc(Cl)cc(Cl)c2)nc2cc(F)ccc21 registered its MIC at 259

// MIC value for CS(=O)(=O)n1c(CCc2ccccc2)nc2cc(F)ccc21 : 314

Documented MIC of O=[N+]([O-])c1cc(Cl)cc2[nH]c(/C=C/c3ccccc3)nc12 : 170

Given item O=S(=O)(c1ccccc1)n1c(CCc2ccccc2)nc2cc(F)ccc21 , the value recorded as its MIC is 263

MIC recorded for this molecule, Clc1cc(Cl)cc(CCc2nc3cc4ccccc4cc3[nH]2)c1 , is 18
